Hello, the source for this data is ChEMBL document CHEMBL1201862, in case you need it.

System: SK-MEL-28
Test: NCI tumour cell line growth inhibition, 48 h
Activity calls are given as the source filed them. Rule as the data show it: active = GI50 up to about 1.1 µM and inactive = higher.
Outcomes: Yes (active), No (inactive)

COMPOUND	CAT
O=C(c1ccccc1)c1nc2c(Cl)ccc(Cl)c2cc1C(Br)Br	Yes
COc1ccc(CCNC(=O)Cc2ccccc2CO)cc1OC	No
O=C1COc2cc(NC(=S)Nc3ccccc3)ccc2N1	No
CN1CC2=C(N=C(S)NC2c2ccc(Cl)cc2)/C(=C/c2ccc(Cl)cc2)C1 (configuration not stated)	No
N#Cc1ccc(N2CCOCC2)cc1	No
O=P(c1ccccc1)(c1ccccc1)N1O[C@@H](c2ccccc2)C=C[C@H]1c1ccccc1	No
CC(NC1=NCCO1)c1cccs1 (configuration not stated)	No
Cc1nnc2n(c1=O)CCN2C	No
COc1ccc(/N=c2/[nH]c(N)c(C(=O)c3ccc(OC)cc3)s2)cc1	No
S=c1nc(Nc2ccc(Cl)cc2)c2c3c(sc2[nH]1)CCCC3	No
NC1=C(Br)C(=O)c2ncccc2C1=O	Yes
CCOC(=O)C1=C(C)N(Cc2ccccc2)C2(O)C=CC(=O)C3C(=O)N(c4ccccc4)C(=O)C132 (configuration not stated)	No

----------
Tested on: MDA-MB-435
Test: NCI tumour cell line growth inhibition, 48 h
Calls of active or inactive are those of the source. Rule as the data show it: active = GI50 up to about 1.1 µM and inactive = higher.
Each entry below carries its recorded GI50.

COMPOUND	GI50
O=C(Cn1c(=O)oc2ccccc21)N(c1ccccc1)c1ccccc1	> 100 µM (inactive)
O=C1C2=Nc3ccccc3C(O)N2c2ccccc21 (stereo unspecified)	2.56 µM (inactive)
Cc1cccc(Cl)c1NC(=O)/C=C/c1ccccc1	> 100 µM (inactive)
COc1cc(C2SC(=N)Nc3c2c(C)nn3C(=O)Cc2ccccc2)ccc1O (stereo unspecified)	> 100 µM (inactive)
Cc1c(C(=O)O)n2c(S)nnc2c2ccccc12	> 100 µM (inactive)
C=C(CN(C)C)C(=O)c1ccc(OC2OC(COC(C)=O)C(OC(C)=O)C(OC(C)=O)C2OC(C)=O)cc1 (stereo unspecified)	6.18 µM (inactive)
CN(C)c1n/c(=N/Cc2ccncc2)ss1	38.9 µM (inactive)
CC(=O)n1[nH]c(=O)n(-c2ccc(Cl)cc2)c1=O	> 100 µM (inactive)
CC(C)OC(=O)C1=C2c3ncccc3C(=O)N2[C@@H](Cl)[C@@H](Cl)[C@@H]1Cl	> 100 µM (inactive)
Cc1cc2c(c(/C=N/Cc3ccccc3)c1)OC1(C=C2)Oc2ccccc2C(=O)N1C (stereo unspecified)	28.7 µM (inactive)
N=C(N)N/N=C/c1nc2sccn2c1[N+](=O)[O-]	19.8 µM (inactive)

----------
Test system: SNB-75
Test: NCI tumour cell line growth inhibition, 48 h
Activity calls are given as the source filed them. No stated cut-off is given here; in the data, active = GI50 up to about 1.1 µM and inactive = higher.
Each entry below carries its recorded GI50.

SMILES RECORD	GI50
COC(OC)(c1ccccc1)C(I)I	13.1 µM (inactive)
C[N+](C)(C)Cc1c(CC#N)[nH]c2ccccc12	96.2 µM (inactive)
O=C(O)CCN(CCCCN(CCC(=O)O)CCC(=O)O)CCC(=O)O	> 100 µM (inactive)
O=P(c1ccccc1)(c1ccccc1)N1O[C@@H](c2ccccc2)C=C[C@H]1c1ccccc1	13.3 µM (inactive)
C#CC[N+](CCO)(CCO)CCCCCCCCCCCCCCCCCC	4.16 µM (inactive)
CCN(CC)P1(=S)Oc2ccc3ccccc3c2-c2c(ccc3ccccc23)O1	32.2 µM (inactive)

----------
Test system: HOP-62
Assay: NCI tumour cell line growth inhibition, 48 h
Activity calls are given as the source filed them. No stated cut-off is given here; in the data, active = GI50 up to about 1.1 µM and inactive = higher.
Outcomes: y for active, n for inactive

COMPOUND	CAT
O=c1c2ccccc2nc(N/N=C/c2ccccc2O)n1-c1ccccc1	n
NC1=C(Br)C(=O)c2ncccc2C1=O	y
COc1ccccc1C1c2cc3c(cc2OC(N2CCCC2)C1C)OCO3 (stereo unspecified)	n
C/C(=C\CSCC(N)C(=O)O)CC/C=C(\C)CNc1ccccc1 (stereo unspecified)	n
COC1/C=C\C=C(/C)C(=O)NC2=CC(=O)C(N)=C(CC(C)CC(OC)C(O)C(C)C=C(C)C1OC(N)=O)C2=O (stereo unspecified)	y
O=C1COc2cc(NC(=S)Nc3ccccc3)ccc2N1	n
CCCCCc1c(Cl)nc(Cl)nc1Cl	n
CCOP1(=O)OCC2OC(n3cnc4c(N)ncnc43)C(O)C2O1.c1ccccc1 (stereo unspecified)	n
O=C1NC2(CCCCC2)C2CCCCC=C12 (stereo unspecified)	n
O=C(OCC(Cl)(Cl)Cl)N1CC[C@@H](C2CCCCC2)C1	n
Cc1ccc(NC2=CC(=O)C(NO)c3ccccc32)cc1 (stereo unspecified)	n

----------
Tested on: OVCAR-8
Assay: NCI tumour cell line growth inhibition, 48 h
The source made the active and inactive calls. Cut-off read from the data, not from the text of the source: active = GI50 up to about 1.1 µM and inactive = higher.

MOLECULE	TARGET OR SYSTEM	GI50
COc1ccccc1N1C(=O)CSC1c1c[nH]c2ccccc12 (stereo unspecified)	OVCAR-8	> 100 µM (inactive)
O=C(O)CN1CCN(CC(=O)O)CCN(CC(=O)O)CC1	OVCAR-8	4.07 µM (inactive)
NC1=NC(NCC2(CO)CCC2)=CC(OCC2(CO)CCC2)N1 (stereo unspecified)	OVCAR-8	> 100 µM (inactive)
COc1ccc(C2=NC(C)(C)CO2)cc1	OVCAR-8	> 100 µM (inactive)
Nc1cc2c(nnn2C2OC(COCc3ccccc3)C(OCc3ccccc3)C2OCc2ccccc2)c(=O)[nH]1 (stereo unspecified)	OVCAR-8	18.9 µM (inactive)
O=c1cc(CO)n(CCc2c[nH]c3ccccc23)cc1O	OVCAR-8	69.7 µM (inactive)

----------
Test system: UO-31
Assay: NCI tumour cell line growth inhibition, 48 h
Active and inactive are the calls of the source. Cut-off read from the data, not from the text of the source: active = GI50 up to about 1.1 µM and inactive = higher.
Each entry below carries its recorded GI50.
MEASURED QUANTITY: GI50

COMPOUND	MEASURED QUANTITY	VALUE OBSERVED
O=C(OCC(Cl)(Cl)Cl)N1CC[C@@H](C2CCCCC2)C1	GI50	20.7 µM (inactive)
O=c1c2ccccc2c2c3c1cccc3c1cccc3c(=O)c4ccccc4c2c31	GI50	> 100 µM (inactive)
CC(C)c1c(O[Si](C(C)C)(C(C)C)C(C)C)cc2c(c1O)CC[C@H]1C(C)(C)CCC[C@]21C	GI50	> 100 µM (inactive)
COc1cc2ccnc(C#N)c2cc1OCc1ccccc1	GI50	> 100 µM (inactive)
COc1cc(-c2[o+]c3cc(O)cc(O)c3cc2O)cc(O)c1O	GI50	> 100 µM (inactive)
N#Cc1c(N)n(-c2cccc(C(=O)O)c2)c(=O)c2cc([N+](=O)[O-])ccc12	GI50	> 100 µM (inactive)
CC(=O)C(=[N+]=[N-])C(=O)OC(C)(C)C#N	GI50	> 10 µM (inactive)
CC(=O)OC1C(O)C(C)OC(OC(=O)C2CCC3C(C2)OC2(CC(OC(=O)/C=C/c4ccccc4)C(C)CO2)C32CO2)C1OC1OC(C)C(O)C(O)C1O (centres undefined)	GI50	7.78 µM (inactive)
CCOC(=O)C(C(=O)OCC)C(NC(=O)Nc1cc(C(F)(F)F)ccc1OC)(C(F)(F)F)C(F)(F)F	GI50	21 µM (inactive)

----------
Test system: HCC 2998
Assay: NCI tumour cell line growth inhibition, 48 h
Active and inactive are the calls of the source. Cut-off read from the data, not from the text of the source: active = GI50 up to about 1.1 µM and inactive = higher. Peptide text beside a SMILES is read from it.
Outcomes: active, inactive

COMPOUND	CAT
COc1cc(S(=O)(=O)Nc2ccc(-c3csc(/N=C\c4cccs4)n3)cc2)ccc1Cl	inactive
COc1cccc2[nH]c(-c3ccccn3)nc12	inactive
COc1ccc2c3c(c(C(=O)c4ccccc4)oc13)CCC2	inactive
COc1cc(C2SCC(=O)N2c2ccccc2Cl)cc(OC)c1OC (stereo not drawn)	inactive
N#CCCN(CCC#N)c1ccc(/C=C(/NC(=O)c2cc([N+](=O)[O-])ccc2Cl)C(=O)NN)cc1	inactive
N#Cc1c(-c2ccccc2)c(/N=N/c2ccc(Cl)cc2)c(=O)n2c1[nH]c1ccccc12	inactive
Cc1nc2c(sc(=S)n2-c2ccccc2)c2nc3ccccc3n12	inactive
Cc1nnc2n(c1=O)CCN2C	inactive
CNC(=O)N(C)COC	inactive
O=S1(=O)c2ccccc2-c2nccc3ccnc1c23	inactive
CCCCC(=O)N/S(=N/C(=O)c1ccccc1)C(Cl)(Cl)Cl (stereo not drawn)	inactive
CCCCC(=O)OC[n+]1ccc(-c2c(COC(=O)NC(C)C)c(COC(=O)NC(C)C)c3n2CCC3)cc1	inactive
C/C=C(\C)C(=O)OC1C2C(C)C(=O)OC2C(O)C(C)C2C=CC(=O)C21C (stereo not drawn)	inactive
CCCC[C@H]1C(=O)O[C@H](C)[C@H](NC(=O)c2cccc(NC=O)c2OC)C(=O)O[C@@H](C)[C@@H]1OC(=O)C(C)CC.CCCC[C@H]1C(=O)O[C@H](C)[C@H](NC(=O)c2cccc(NC=O)c2OC)C(=O)O[C@@H](C)[C@@H]1OC(=O)CC(C)C (stereo partly drawn)	inactive
CCOC(=O)c1ccc(N[C@@H]2c3cc4c(cc3C(C3=CC(=O)C(=O)C(OC)=C3)[C@H]3C(=O)OCC32)OCO4)cc1 (stereo partly drawn)	inactive
CC(=O)O[C@H]1CC2C(C3CCC(C(C)CCC(=O)O)[C@]31C)[C@H](OC(C)=O)C[C@@H]1CC3(CC[C@]21C)OOC1(CC[C@]2(C)C4C[C@H](OC(C)=O)[C@]5(C)C(C(C)CCC(=O)O)CCC5C4[C@H](OC(C)=O)C[C@@H]2C1)OO3 (stereo partly drawn)	inactive
COC(=O)[C@@]12CN(C)[C@@H](C(C)(C)C)N1C(=O)OC2c1ccccc1 (stereo partly drawn)	inactive
C=CCC(SC)C1=C(C)C(=O)c2ccccc21 (stereo not drawn)	inactive
CC(=O)Oc1cc(OC(C)=O)c2c(c1)OC(c1ccc(OC(C)=O)c(OC(C)=O)c1)CC2=O (stereo not drawn)	inactive
O=C(N/N=C1\CCc2ccccc21)N/N=C1\CCc2ccccc21	inactive
Clc1ccc(-c2c(C3=NCCN3)nnn2-c2ccccc2)cc1	inactive
COc1ccc2c(c1)c1nn(CCN3CCCCC3)c3ccc4c(=O)n(CCN(C)C)c(=O)n2c4c13	active
COc1cc(C2SC(=N)Nc3c2c(C)nn3C(=O)Cc2ccccc2)ccc1O (stereo not drawn)	inactive
COC(C(=O)NN)c1ccccc1 (stereo not drawn)	inactive
Cc1c(C)c2c(c(N)c1C#N)C(=O)N(N)C2=O	inactive
O=C1C2=C(c3ccccc31)C(c1ccccc1Cl)N1C(=O)CSC1=N2 (stereo not drawn)	inactive
CC(C)=CC(O)C/C(C)=C/CC/C(C)=C/CCC1(C)C(CCCO)/C(=C(/C)C=O)CCC1(C)O (stereo not drawn)	inactive
O=C(O)c1nc2ccccc2nc1Nc1ccc(F)cc1	inactive
CCN(CC)CCCn1c(=O)c2cccnc2n2c3c(=O)n(C)c(=O)n(C)c3nc12	inactive
COc1ccc2c3c([nH]c2c1[N+](=O)[O-])C(C)N(Cc1ccccc1)CC3 (stereo not drawn)	inactive
c1ccc(C2SCc3nc4ccccc4n32)cc1 (stereo not drawn)	inactive
S=c1nc(Nc2ccc(Cl)cc2)c2c3c(sc2[nH]1)CCCC3	inactive
CC(=O)OCC1OC(n2c(=S)n(-c3ccccc3)c(=O)c3cc(Br)ccc32)C(OC(C)=O)C1OC(C)=O (stereo not drawn)	inactive
C/C(CC(=O)N(C(C)C)C(C)C)=N\NC(=O)c1ccncc1	inactive
CC(C)CC(NC(=O)C(CC(C)C)NC(=O)C(Cc1c[nH]cn1)NC(=O)C(C)NC(=O)C(NC(=O)C(C)NC(=O)C(Cc1c[nH]c2ccccc12)NC(=O)C(CCC(=O)O)NC(=O)C(N)Cc1ccccc1)C(C)C)C(N)=O (stereo not drawn) (H-FEWAVAHLL-NH2; configuration not given here)	inactive
C=C1C(=O)OC2CCCCC3OC3C12 (stereo not drawn)	inactive
Cn1c(=O)c2nc(N3CCCCC3)cnc2n(C)c1=O	inactive
COC(=O)C1=C(C)NC(C)=C(C(=O)OC)C1c1nc2sccn2c1[N+](=O)[O-]	inactive
